Where do these numbers come from? They come from ChEMBL document CHEMBL5614418.

# Test system: Enterococcus faecalis
# procedureDetails: Antibacterial activity against Enterococcus faecalis OG1RF by broth microdilution method
# Assay type: functional
Listing of recorded MIC by entry.

- O=C(C1=C(O)C(=O)N(c2nnc(SCc3ccccc3)s2)C1c1ccc(O)cc1O)c1cc2ccccc2o1 (centres undefined): > 100 µM

Please report MIC for the following molecule: O=C(C1=C(O)C(=O)N(c2nnc(SCc3ccccc3)s2)C1c1cccc(O)c1O)c1cc2ccccc2o1 (centres undefined)
25 µM

Please report MIC for the following molecule: COc1ccc(C(=O)C2=C(O)C(=O)N(c3nnc(SCc4ccccc4)s3)C2c2ccccc2O)cc1 (centres undefined)
> 100 µM

Please report MIC for the following molecule: O=C(C1=C(O)C(=O)N(c2nnc(SCc3ccccc3)s2)C1c1ccccc1O)c1ccc([N+](=O)[O-])cc1 (centres undefined)
> 100 µM

* * *

# procedureDetails: Binding affinity to biotin-labeled cardiolipin (unknown origin) by biolayer interferometry
attributeMeasured: Kd
Please don't drop the unit; write it after the number.

Please report Kd for the following compound: O=C(C1=C(O)C(=O)N(c2nnc(SCc3ccccc3Cl)s2)C1c1ccccc1O)c1cc2ccccc2o1 (stereo unspecified)
44.1 µM

* * *

# System: Staphylococcus epidermidis
# procedureDetails: Antibacterial activity against Staphylococcus epidermidis SE1457 by broth microdilution method
# Assay type: functional
attributeMeasured: MIC

Recorded results for 3 molecules are shown here.
• COc1ccc(C(=O)C2=C(O)C(=O)N(c3nnc(SCc4ccccc4)s3)C2c2ccccc2O)cc1 (centres undefined) = > 100 µM
• COC(=O)COc1ccc(C2C(C(=O)c3cc4ccccc4o3)=C(O)C(=O)N2c2nnc(SCc3ccccc3Cl)s2)cc1 (centres undefined) = > 100 µM
• O=C(C1=C(O)C(=O)N(c2nnc(SCc3ccccc3)s2)C1c1ccccc1O)c1ccc([N+](=O)[O-])cc1 (centres undefined) = > 100 µM

Let us move to another entry and its MIC.
Please report MIC for the following molecule: COc1ccc(O)c(C2C(C(=O)c3cc4ccccc4o3)=C(O)C(=O)N2c2nnc(SCc3ccccc3Cl)s2)c1 (centres undefined)
50 µM

* * *

# procedureDetails: Hemolytic activity against human erythrocytes measured after 1 hr
# Assay type: toxicity, cell-based, Erythrocyte
attributeMeasured: HC50 at 1 h

Recorded results for 6 compounds are shown here.
- O=C(C1=C(O)C(=O)N(c2nnc(SCc3ccccc3Cl)s2)C1c1ccccc1O)c1cc2ccccc2s1 (configuration not stated): > 200 µM
- COc1ccc(C(=O)C2=C(O)C(=O)N(c3nnc(SCc4ccccc4)s3)C2c2ccccc2O)cc1 (configuration not stated): > 200 µM
- COC(=O)COc1ccc(C2C(C(=O)c3cc4ccccc4o3)=C(O)C(=O)N2c2nnc(SCc3ccccc3Cl)s2)cc1 (configuration not stated): > 200 µM
- O=C(C1=C(O)C(=O)N(c2nnc(SCc3ccccc3Cl)s2)C1c1ccccc1)c1cc2ccccc2o1 (configuration not stated): > 200 µM
- O=C(C1=C(O)C(=O)N(c2nnc(SCc3cccc(Cl)c3)s2)C1c1ccccc1O)c1cc2ccccc2o1 (configuration not stated): > 200 µM
- O=C(C1=C(O)C(=O)N(c2nnc(SCc3ccccc3)s2)C1c1ccc(O)cc1O)c1cc2ccccc2o1 (configuration not stated): > 200 µM

Please report HC50 at 1 h for the following compound: O=C(C1=C(O)C(=O)N(c2nnc(SCc3ccccc3Cl)s2)C1c1ccccc1O)c1cc2ccccc2o1 (configuration not stated)
> 200 µM

Please report HC50 at 1 h for the following compound: COc1ccc(O)c(C2C(C(=O)c3cc4ccccc4o3)=C(O)C(=O)N2c2nnc(SCc3ccccc3Cl)s2)c1 (configuration not stated)
> 200 µM

Please report HC50 at 1 h for the following compound: O=C(C1=C(O)C(=O)N(c2nnc(SCc3ccccc3Cl)s2)C1c1ccc(O)c(Br)c1)c1cc2ccccc2o1 (configuration not stated)
> 200 µM
